# systemTested: UniProtKB P35372
# Sequence (P35372 whole entry, species assumed): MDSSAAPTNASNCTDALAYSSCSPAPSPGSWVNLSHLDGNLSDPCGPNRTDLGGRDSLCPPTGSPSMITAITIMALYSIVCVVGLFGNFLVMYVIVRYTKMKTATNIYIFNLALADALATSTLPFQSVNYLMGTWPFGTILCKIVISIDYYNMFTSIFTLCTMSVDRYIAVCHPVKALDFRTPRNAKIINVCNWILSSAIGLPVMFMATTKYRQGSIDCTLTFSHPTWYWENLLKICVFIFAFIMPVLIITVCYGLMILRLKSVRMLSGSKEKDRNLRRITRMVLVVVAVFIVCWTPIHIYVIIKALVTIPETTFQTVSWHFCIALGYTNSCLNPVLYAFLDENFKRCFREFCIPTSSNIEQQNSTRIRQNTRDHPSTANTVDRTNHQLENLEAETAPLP
# assayText: biochemical
# assayContext: class symbols; read-out: GTP Activity
reportedMetric: EC50

Requested read-out: EC50. Entry: COc1cc(OC)cc(N2C(N)=C(c3nc4ccccc4[nH]3)C(=O)C2CN)c1 (stereo not shown) [compound 70]
0.1 to 1 µM

Requested read-out: EC50. Entry: CCC1(O)C(=O)C(c2nc3ccccc3[nH]2)=C(N)N1c1cc(OC)cc(OC)c1 (stereo not shown) [compound 113]
0.1 to 1 µM

Requested read-out: EC50. Entry: COc1cc(OC)cc(-n2c(N)c(-c3nc4ccccc4[nH]3)c(=O)n2C)c1 [compound 86]
0.1 to 1 µM

Requested read-out: EC50. Entry: CN(C)c1cccc(N2C(N)=C(c3nc4ccccc4[nH]3)C(=O)C2(C)C)c1 [compound 164]
1 to 10 µM
